Molecular target: dAsCas12a S542R (Acidaminococcus sp., UniProt U2UMQ6 1-1307, S542R;D908A;E993A;D1235A)
Assay: Spec-seq (native PAGE EMSA with sequencing of bound and unbound); 25 mM Tris-HCl pH 7.4, 150 mM KCl, 5 mM MgCl2, 10% glycerol, 1 mM DTT, 40 ng/uL salmon sperm DNA; 400 nM Cas12a, 480 nM crRNA, 50 nM library, 37 C 1 h; native PAGE at room temperature; high values mean tight binding;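 also: relative affinity from the bound to unbound sequence frequency ratio in Spec-seq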
Details: protein: recombinant
Grouping rule (binding signal): bottom bin (below -8 lnKA), middle bin (-8 lnKA to below -7 lnKA), top bin (-7 lnKA or more)

binder	qualitative label
TTGT (dsDNA) DNA 1: GCTATCTAGTGCTCAGTACGCACTGTTGTAGGAAACTTCTGGCAGGACCAGGTCATGAGATCGGAAGAGCACACGTCTGAACTCCAGTCA DNA 2: TGACTGGAGTTCAGACGTGTGCTCTTCCGATCTCATGACCTGGTCCTGCCAGAAGTTTCCTACAACAGTGCGTACTGAGCACTAGATAGC RNA: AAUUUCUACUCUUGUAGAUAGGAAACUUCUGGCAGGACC	middle bin
TGAA (dsDNA) DNA 1: GCTATCTAGTGCTCAGTACGCACTGTGAAAGGAAACTTCTGGCAGGACCAGGTCATGAGATCGGAAGAGCACACGTCTGAACTCCAGTCA DNA 2: TGACTGGAGTTCAGACGTGTGCTCTTCCGATCTCATGACCTGGTCCTGCCAGAAGTTTCCTTTCACAGTGCGTACTGAGCACTAGATAGC RNA: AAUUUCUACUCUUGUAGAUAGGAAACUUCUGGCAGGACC	bottom bin
TTAG (dsDNA) DNA 1: GCTATCTAGTGCTCAGTACGCACTGTTAGAGGAAACTTCTGGCAGGACCAGGTCATGAGATCGGAAGAGCACACGTCTGAACTCCAGTCA DNA 2: TGACTGGAGTTCAGACGTGTGCTCTTCCGATCTCATGACCTGGTCCTGCCAGAAGTTTCCTCTAACAGTGCGTACTGAGCACTAGATAGC RNA: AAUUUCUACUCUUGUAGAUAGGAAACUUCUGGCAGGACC	middle bin
CAGA (dsDNA) DNA 1: GCTATCTAGTGCTCAGTACGCACTGCAGAAGGAAACTTCTGGCAGGACCAGGTCATGAGATCGGAAGAGCACACGTCTGAACTCCAGTCA DNA 2: TGACTGGAGTTCAGACGTGTGCTCTTCCGATCTCATGACCTGGTCCTGCCAGAAGTTTCCTTCTGCAGTGCGTACTGAGCACTAGATAGC RNA: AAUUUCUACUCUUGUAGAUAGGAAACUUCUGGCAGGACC	bottom bin
ATTC (dsDNA) DNA 1: GCTATCTAGTGCTCAGTACGCACTGATTCAGGAAACTTCTGGCAGGACCAGGTCATGAGATCGGAAGAGCACACGTCTGAACTCCAGTCA DNA 2: TGACTGGAGTTCAGACGTGTGCTCTTCCGATCTCATGACCTGGTCCTGCCAGAAGTTTCCTGAATCAGTGCGTACTGAGCACTAGATAGC RNA: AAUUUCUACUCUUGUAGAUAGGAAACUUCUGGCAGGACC	top bin
TAGG (dsDNA) DNA 1: GCTATCTAGTGCTCAGTACGCACTGTAGGAGGAAACTTCTGGCAGGACCAGGTCATGAGATCGGAAGAGCACACGTCTGAACTCCAGTCA DNA 2: TGACTGGAGTTCAGACGTGTGCTCTTCCGATCTCATGACCTGGTCCTGCCAGAAGTTTCCTCCTACAGTGCGTACTGAGCACTAGATAGC RNA: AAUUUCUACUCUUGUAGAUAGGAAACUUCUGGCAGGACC	bottom bin
TTCG (dsDNA) DNA 1: GCTATCTAGTGCTCAGTACGCACTGTTCGAGGAAACTTCTGGCAGGACCAGGTCATGAGATCGGAAGAGCACACGTCTGAACTCCAGTCA DNA 2: TGACTGGAGTTCAGACGTGTGCTCTTCCGATCTCATGACCTGGTCCTGCCAGAAGTTTCCTCGAACAGTGCGTACTGAGCACTAGATAGC RNA: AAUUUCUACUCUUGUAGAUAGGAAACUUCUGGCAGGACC	top bin
